# maps each entry to its relative viability
tested on: NCI-H1666; experiment: relative viability (nuclei count vs DMSO), 5 days (fraction); higher = more cells survive; details: first compound 2.53 µM

Examples with their reported relative viability follow.
Cc1cnc(-c2cnc(NCCNc3ccc(C#N)cn3)nc2-c2ccc(Cl)cc2Cl)[nH]1 + CS(=O)(=O)CCNCc1ccc(-c2ccc3ncnc(Nc4ccc(OCc5cccc(F)c5)c(Cl)c4)c3c2)o1 [Lapatinib] (partner 2 µM): 0.62
O=c1[nH]c2ccccc2n1C1CCN(CCCC(c2ccc(F)cc2)c2ccc(F)cc2)CC1 [Pimozide] + COc1cccc2cc(-c3nc([C@H]4CC[C@H](C(=O)O)CC4)n4ncnc(N)c34)[nH]c12 [OSI-027] (partner 0.5 µM): 0.699
O=c1[nH]c2ccccc2n1C1CCN(CCCC(c2ccc(F)cc2)c2ccc(F)cc2)CC1 [Pimozide] + C[C@@H](Oc1cc(-c2cnn(C3CCNCC3)c2)cnc1N)c1c(Cl)ccc(F)c1Cl [Crizotinib] (partner 1 µM): 0.751

Prompt: Report measured relative viability; entry is Cc1cnc(-c2cnc(NCCNc3ccc(C#N)cn3)nc2-c2ccc(Cl)cc2Cl)[nH]1 + CC(=O)c1c(C)c2cnc(Nc3ccc(N4CCNCC4)cn3)nc2n(C2CCCC2)c1=O [Palbociclib] (partner 0.5 µM)
Completion: 0.609

Prompt: In one line, give reported relative viability of the entry Cc1cnc(-c2cnc(NCCNc3ccc(C#N)cn3)nc2-c2ccc(Cl)cc2Cl)[nH]1 + O=C(CCCCCCC(=O)Nc1ccccc1)NO [Vorinostat] (partner 1 µM) .
Completion: 1.1

Prompt: Provide one value: measured relative viability of O=c1[nH]c2ccccc2n1C1CCN(CCCC(c2ccc(F)cc2)c2ccc(F)cc2)CC1 [Pimozide] + O=C(CCCCCCC(=O)Nc1ccccc1)NO [Vorinostat] (partner 1 µM)
Completion: 0.991
